meta.source: patent US20220033484A1

Each entry below carries its reported pKd.
- target_or_system: T1, cTnI quality control product recombinant protein (human, UniProt P19429 2-210, limits assumed)
- T1 construct: treated as the same molecule; also called cTnI antigen; cardiac troponin I
- T1 sequence (P19429 2-210 limits assumed): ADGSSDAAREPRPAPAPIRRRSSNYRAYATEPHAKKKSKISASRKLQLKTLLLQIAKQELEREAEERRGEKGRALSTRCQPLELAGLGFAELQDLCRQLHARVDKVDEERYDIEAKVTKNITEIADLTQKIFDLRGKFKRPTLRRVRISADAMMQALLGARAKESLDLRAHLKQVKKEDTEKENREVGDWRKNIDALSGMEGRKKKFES
- protocol_summary: AMC sensor, antibody immobilised, cTnI in solution
The value called pKd is obtained by taking minus log10 of the concentration in mol/L.

Ask: Report pKd for Mutation 1-9 (antibody, V domains shown, Built as m8) VH: EVQLQQSGPELVKPGASVKMSCKASGYTFTLYVVHWVKQKPGQGLEWIGYIQPYLDGTKYNEKFKGKATLTVDKSSSTAFMELSSLTSEDSAVYYCARSGYGQYGLAWLAYWGQGTLVTVSA VL: QAVVIQESALTTSPGETVTLTCRSSTGAATTSNYANWVQEKPDHLFTGLIGGSQNRAPGVPARFSGSLIGDKAALTITGAQTEDEAIYFCALVYSNHWVFGGGTKLTVLG
Result: 8.27

Next:
Ask: Report pKd for Mutation 1-28 (antibody, V domains shown, Built as m8) VH: EVQLQQSGPELVKPGASVKMSCKASGYTFTLYVLHWVKQKPGQGLEWIGYIYPYLDGTKYNEKFKGKATLTVDKSSSTAFMELSSLTSEDSAVYYCARSGYGNYGLAWLAYWGQGTLVTVSA VL: QAVVIQESALTTSPGETVTLTCRSSTGAATTSQYANWVQEKPDHLFTGLIGGSNNRAPGVPARFSGSLIGDKAALTITGAQTEDEAIYFCALVYSNQWVFGGGTKLTVLG
Result: 8.75

Ask: Report pKd for Mutation 1-18 (antibody, V domains shown, Built as m8) VH: EVQLQQSGPELVKPGASVKMSCKASGYTFTIYVVHWVKQKPGQGLEWIGYINPYLDGTKYNEKFKGKATLTVDKSSSTAFMELSSLTSEDSAVYYCARSGYGQYGLAWLAYWGQGTLVTVSA VL: QAVVIQESALTTSPGETVTLTCRSSTGAVTTSQYANWVQEKPDHLFTGLIGGSNNRAPGVPARFSGSLIGDKAALTITGAQTEDEAIYFCALVYSNHWVFGGGTKLTVLG
Result: 8.03
